The origin of these recorded values is PubChem BioAssay (Tox21).

# System tested: Cytochrome P450 1A2 (Homo sapiens) (UniProt P05177)
# Sequence (P05177 whole entry, looked up): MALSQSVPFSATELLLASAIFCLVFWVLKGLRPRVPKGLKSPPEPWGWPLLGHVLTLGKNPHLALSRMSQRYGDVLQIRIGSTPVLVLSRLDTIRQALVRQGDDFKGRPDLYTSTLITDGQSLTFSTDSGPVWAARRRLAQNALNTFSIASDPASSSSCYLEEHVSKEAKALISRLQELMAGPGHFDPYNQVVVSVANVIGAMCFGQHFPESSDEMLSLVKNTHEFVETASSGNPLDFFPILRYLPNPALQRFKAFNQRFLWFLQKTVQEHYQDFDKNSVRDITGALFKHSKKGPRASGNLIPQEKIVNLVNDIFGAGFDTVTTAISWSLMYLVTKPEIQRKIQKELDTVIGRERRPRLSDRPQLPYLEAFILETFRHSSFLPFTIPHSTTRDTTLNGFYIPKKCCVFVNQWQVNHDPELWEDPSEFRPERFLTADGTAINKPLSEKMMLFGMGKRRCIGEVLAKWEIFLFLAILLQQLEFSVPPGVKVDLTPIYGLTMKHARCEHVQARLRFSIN
# Method description: Cytochrome P450 Family 1 Subfamily A Member 2 (CYP1A2) small molecule antagonists: luciferase reporter qHTS assay (AID 1671199); also: nearly all actives have a fitted effect of over 50% in size
# Applied conditions: P450-Glo CYP1A2 enzyme, luciferin luminescence, 1 h; series mostly up to 53 µM
Records with an inconclusive call do not appear. Active and inactive are the calls of the source. Calls follow the shape of the dose curve; as a rule, active = well fitted inhibition curve with a large enough effect in the repeat runs; inconclusive = weak or mixed curves; inactive = no such curve, though single readings can be large or run the other way.
A correct response names exactly one class from Yes for active, No for inactive

# lookup: test call for N#CCc1ccc(Cl)cc1Cl
Yes

# lookup: test call for C=C(C)C(=O)OCCOCCOC(=O)C(=C)C
Yes

# lookup: test call for CCC(=O)C1CC(C(C)C)CC=C1C (centres undefined)
Yes

# lookup: test call for CC(CN(C)C)C(C)(O)Cc1ccc(Cl)cc1 (centres undefined)
No

# lookup: test call for CC(C)COCC(CN(Cc1ccccc1)c1ccccc1)N1CCCC1 (centres undefined)
No

# lookup: test call for O[C@@H]1CO[C@H]2[C@@H]1OC[C@@H]2O
No

# lookup: test call for Cc1cc(C)c(N)cc1C
Yes

# lookup: test call for O=C=Nc1ccc(Cl)c(Cl)c1
Yes

# lookup: test call for C=C/C(C)=C/C/C=C(\C)CCC=C(C)C
No

# lookup: test call for O=Cc1c2ccccc2c(Cl)c2ccccc12
Yes

# lookup: test call for CCN(CC)CCNC(=O)COc1ccc(OC)cc1
No

# lookup: test call for C(=C\c1ccccc1)/c1ccccc1
Yes

# lookup: test call for C=Cc1ccc(S(=O)(=O)O)cc1
Yes

# lookup: test call for CCOC(C)=O
No

---

# Method description: qHTS assay to identify small molecule antagonists of the thyroid receptor (TR) signaling pathway (AID 743065); also: nearly all actives have a fitted effect of over 55% in size
# Applied conditions: GH3.TRE-Luc, T3-stimulated luciferase inhibition, 23.5 h; series mostly up to 70.3 µM
Results filed as inconclusive are left out. Calls of active or inactive are those of the source. The call rests on the fitted dose curve; in most records, active means well fitted inhibition curve with a large enough effect in the repeat runs; inconclusive means weak or mixed curves; inactive means no such curve, though single readings can be large or run the other way.
A correct response names exactly one class from active, inactive

# lookup: test call for CCC(C)(C)OC
inactive

# lookup: test call for CCOC(=O)[C@H](CCc1ccccc1)N[C@@H](C)C(=O)N(CC(=O)O)C1Cc2ccccc2C1
inactive

# lookup: test call for C(=C\c1ccccc1)/c1ccccc1
inactive

# lookup: test call for O=C=Nc1ccc(Cl)c(Cl)c1
inactive

# lookup: test call for Cc1ccccc1S
inactive

# lookup: test call for Cc1cc(C)cc(N)c1
inactive

# lookup: test call for O=c1[nH]ncc2ccccc12
inactive

# lookup: test call for CC(C)(O)c1ccc(CNC(=O)c2cccnc2Oc2ccc3nonc3c2)cc1
inactive

# lookup: test call for CC1(C)[C@H](C(=O)O)N2C(=O)C[C@H]2S1(=O)=O
inactive

# lookup: test call for c1ccc2sc(SN(C3CCCCC3)C3CCCCC3)nc2c1
active

# lookup: test call for Nc1ncnc2c1ncn2[C@H]1CC[C@@H](CO)O1
inactive

# lookup: test call for Oc1cc2c(cc1O)[C@H]1c3ccc(O)c(O)c3OC[C@@]1(O)C2
active

# lookup: test call for CC(=O)c1ccc([N+](=O)[O-])cc1
inactive

---

# Method description: qHTS assay to identify small molecule antagonists of the peroxisome proliferator-activated receptor delta (PPARd) signaling pathway - cell viability counter screen (AID 743213); also: nearly all actives have a fitted effect of over 50% in size
# Applied conditions: PPARd-bla HEK293H viability, CellTiter-Glo luminescence, 17 h; series mostly up to 62 µM
Records with an inconclusive call do not appear. Calls of active or inactive are those of the source. Calls follow the shape of the dose curve; as a rule, active = well fitted cell-killing curve with a large enough effect in the repeat runs; inconclusive = weak or mixed curves; inactive = no such curve, though single readings can be large or run the other way.
A correct response names exactly one class from True (active), False (inactive)

# lookup: test call for C[C@@]12CCC[C@H]1[C@@H]1CC[C@H]3C[C@@H](O)CC[C@]3(C)[C@H]1CC2
False

# lookup: test call for C[C@@H](CN(C)C)CN1c2ccccc2Sc2ccccc21
True

# lookup: test call for C=CC(=O)[O-].C=CC(=O)[O-].[Zn+2]
False

# lookup: test call for C=C(C)[C@@H]1CCC2=CCC[C@@H](C)[C@]2(C)C1
False

# lookup: test call for CCn1cc(C(=O)O)c(=O)c2cc(F)c(N3CCNCC3)cc21
False

# lookup: test call for C=CCc1ccccc1OCC(O)CNC(C)C (stereo not given)
False

# lookup: test call for CCC(=O)C1CC(C(C)C)CC=C1C (stereo not given)
False

# lookup: test call for O=c1[nH]ncc2ccccc12
False

# lookup: test call for CCOC(=O)/C=C/C(=O)OCC
False

# lookup: test call for Cc1ccc(CO)cc1
False

# lookup: test call for Cc1ccccc1N=C(N)Nc1ccccc1C
False

# lookup: test call for O=C1c2ccccc2C(=O)C1(O)O
False

# lookup: test call for O=C1CCCCCCCCCCOCCCCO1
False

# lookup: test call for CCOC(=O)OC(C)OC(=O)[C@@H]1N2C(=O)[C@@H](NC(=O)[C@H](N)c3ccccc3)[C@H]2SC1(C)C (stereo not given in full)
False

# lookup: test call for CC(=O)Nc1ccc(C)cc1C
False

# lookup: test call for Cc1ccc2c(Br)cc(Br)c(O)c2n1
False

# lookup: test call for NC1[C@H]2CN(c3nc4c(cc3F)c(=O)c(C(=O)O)cn4-c3ccc(F)cc3F)C[C@@H]12 (stereo not given in full)
False

# lookup: test call for CC[C@]1(O)C[C@H]2CN(CCc3c([nH]c4ccccc34)[C@@](C(=O)OC)(c3cc4c(cc3OC)N(C=O)[C@H]3[C@@](O)(C(=O)OC)[C@H](OC(C)=O)[C@]5(CC)C=CCN6CC[C@]43[C@@H]65)C2)C1
False

# lookup: test call for OC1(c2ccccc2)CCNCC1
False

# lookup: test call for N#CCc1ccc(Cl)cc1Cl
False

# lookup: test call for CCOC(=O)C1=C(C)NC(C)=C(C(=O)OC)C1c1cccc(Cl)c1Cl (stereo not given)
False

# lookup: test call for Cc1ccc(OC(=O)c2ccccc2O)cc1
False

# lookup: test call for OCCOCC#CCOCCO
False

# lookup: test call for C=COCC(C)C
False

# lookup: test call for CC(=O)N/N=C/c1ccc([N+](=O)[O-])o1
False
